assay: Apparent oral clearance in male ICR-CD1 mouse liver at 80 mg/kg, po; format: ADME, organism-based
experimental endpoint: CL/F (mL/min/kg)
Note: unit mL/min/kg is implicit; provide only the numeric part.

Query (compound): `O=c1c2cc(F)c(Oc3ccc(OC(F)(F)F)cc3)cc2[nH]c2cc(Cl)cc(F)c12` ; field requested: CL/F
1.05

----------
assay: MRTlast in male ICR-CD1 mouse liver at 40 mg/kg, po; type: ADME, organism-based
experimental endpoint: MRT last (h)
Note: unit h is implicit; provide only the numeric part.

Query (molecule): `O=c1c2c([nH]c3cc(Oc4ccc(OC(F)(F)F)cc4)ccc13)CCCC2` ; field requested: MRT last
5.16

Query (molecule): `O=c1c2c([nH]c3cc(Oc4ccc(OC(F)(F)F)cc4)c(F)cc13)CCCC2` ; field requested: MRT last
5.64
